molecular target: T1, huCB1 nanodisc (CB1-ND) (human, UniProt P21554 99-414); test: Octet BLI; antibody captured by anti-human Fc, CB1-nanodisc in solution, 1:1 model
T1 construct: The His-tagged CB1 is embedded in a POPC lipid nanodisc with MSP1D1 scaffold protein (molar ratio 480:8:1); also called huCB1-ND; #CB1-008
T1 sequence (P21554 99-414 limits assumed): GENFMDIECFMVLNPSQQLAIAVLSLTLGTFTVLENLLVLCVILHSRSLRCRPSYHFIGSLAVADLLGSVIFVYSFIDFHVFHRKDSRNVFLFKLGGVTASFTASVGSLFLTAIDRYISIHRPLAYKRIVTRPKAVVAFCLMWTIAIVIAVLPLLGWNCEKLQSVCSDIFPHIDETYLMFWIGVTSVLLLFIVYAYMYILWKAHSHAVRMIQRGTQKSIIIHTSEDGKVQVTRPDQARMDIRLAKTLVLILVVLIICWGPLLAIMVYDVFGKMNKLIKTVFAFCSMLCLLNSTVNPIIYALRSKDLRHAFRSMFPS
QUANTITY_NAME: pKd
In plain terms, pKd is the concentration in mol/L turned into minus its base-10 logarithm.

Consider the worked cases shown below.
[
  {
    "BINDER": "LIBC523797-1 (antibody, V domains shown, Expressed as IgG1 SEFL2 mAb) VH: QVQLQESGPGLVKPSQTLSLTCTVSGGSIRRGGDYWSWIRQHPGKGLEWIGHVYYTGSTKYNPNFKGRATISVNTYKNQFSLKLSSVTAADTAVYYCARDYDILTGYSYYYYGMDVWGQGTTVTVSS VL: DIVMTQSPLSLPVTPGEPASISCRSSQSLLTSYGINYVDWYLQKPGQSPQLLIYQGSNRASGVPDRFSGSGSGTDFTLKISRVEAEDVGVYYCRQAVGLPRTFGQGTKVEIKR",
    "pKd": 7.74
  },
  {
    "BINDER": "LIBC527814-1 (antibody, V domains shown, Expressed as IgG1 SEFL2 mAb) VH: QVQLQESGPGLVKPSQTLSLTCTVSGGSIRRGGDYWGWIRQHPGKGLEWIGHVYQTGSTKYNPSFKDRATISVNTYKNQFSLKLSSVTAADTAVYYCARNYDTLTGYSYYYYGMDVWGQGTTVTVSS VL: DIQMTQSPSTLSASVGDRVTITCRASQSISNYLNWYQQKPGKAPKLLIYAASSLHSGVPSRFSGSGSGTDFTLTISSLQPEDFASYYCQQYQSYPLTFGQGTKVEIKR",
    "pKd": 7.46
  },
  {
    "BINDER": "LIBC527919-1 (antibody, V domains shown, Expressed as IgG1 SEFL2 mAb) VH: QVQLQESGPGLVKPSQTLSLTCTVSGGSIRRGGDYWAWIRQHPGKGLEWIGHVYQTGSTAYNPNFKDRATISVNTYKNQFSLKLSSVTAADTAVYYCARNYDALSGYSYYYYGMDVWGQGTTVTVSS VL: DIQLTQSPSSLSASVGDRVTITCRASQSIISYLNWYQQKPGKAPKLLIYAASSLRSGVPSRFSGSGSGTDFTLTISSLQPEDFATYYCQQYSNYPLTFGGGTRVEIKR",
    "pKd": 7.22
  },
  {
    "BINDER": "LIBC523661-1 (antibody, V domains shown, Expressed as IgG1 SEFL2 mAb) VH: QVQLQESGPGLVKPSQTLSLTCTVSGGSIRRGGDYWSWIRQHPGKGLEWIGHIYYEGSTKYNPSFKGRATISVNTYKNQFSLKLSSVTAADTAVYYCARDYDPVTGHSYYYYGMDVWGQGTTVTVSS VL: DIVMTQSPLSLPVTPGEPASISCRSSQSLLTSSGYNYVDWYLQKPGQSPQLLIYQGSNRASGVPDRFSGSGSGTDFTLKISRVEAEDVGVYYCRQARAIPRTFGQGTKVEIKR",
    "pKd": 7.11
  },
  {
    "BINDER": "LIBC528116-1 (antibody, V domains shown, Expressed as IgG1 SEFL2 mAb; also called 37940-4) VH: QVQLQESGPGLVKPSQTLSLTCTVSGGSIRRGGDYWAWIRQHPGKGLEWIGHVYYTGSTNYNPRFKDRATISVNTYKNQFSLKLSSVTAADTAVYYCARNYDTVTGYSYYYYGMDVWGQGTTVTVSS VL: DIQLTQSPSTLSASVGDRVTITCRASQSISNYLNWYQQKPGKAPKLLIYAASSLHSGVPSRFSGSGSGTDFTLTISSLQPEDFASYYCQQYQSYPLTFGQGTKVEIKR",
    "pKd": 7.54
  }
]

Kindly review the next binder as well.
// query Read the entry LIBC527997-1 (antibody, V domains shown, Expressed as IgG1 SEFL2 mAb) VH: QVQLQESGPGLVKPSQTLSLTCTVSGGSIRRGGDYWAWIRQHPGKGLEWIGHIYQTGSTNYNPRFKGRATISVNTYKNQFSLKLSSVTAADTAVYYCARNYDTLTGYSYYYYGMDVWGQGTTVTVSS VL: DIQMTQSPSSLSASVGDRVTITCRASQSISNYLNWYQQKPGKAPKLLIYAASSLHSGVPSRFSGSGSGTDFTLTISSLQPEDFASYYCQQYQSYPLTFGQGTKVEIKR and write its reported pKd.
// result 7.59
